This collection of values is drawn from paper PMC317295.

TEST_TARGET: β2-adrenergic receptor (β2AR) (Homo sapiens, UniProt P07550)
Sequence (P07550 whole entry): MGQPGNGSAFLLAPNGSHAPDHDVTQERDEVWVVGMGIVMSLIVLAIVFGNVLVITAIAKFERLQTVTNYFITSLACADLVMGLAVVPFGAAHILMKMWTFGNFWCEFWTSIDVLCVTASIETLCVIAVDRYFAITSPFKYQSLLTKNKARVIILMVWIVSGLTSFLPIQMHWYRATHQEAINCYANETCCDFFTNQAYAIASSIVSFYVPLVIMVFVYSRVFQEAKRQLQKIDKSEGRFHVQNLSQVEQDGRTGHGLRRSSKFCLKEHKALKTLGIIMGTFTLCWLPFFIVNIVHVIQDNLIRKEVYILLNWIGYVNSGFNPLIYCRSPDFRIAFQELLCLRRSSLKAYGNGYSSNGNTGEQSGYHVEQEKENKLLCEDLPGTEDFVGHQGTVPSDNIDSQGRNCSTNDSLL
ASSAY_REMARKS: radioligand saturation binding on membranes
PARAMETER: pKd
Entry type: numeric. Quantity: pKd, the -log10 of concentration in molar units.

Tell me measured pKd for CCCc1ccccc1OCC(O)CNC(C)C (stereo not shown) [[3H]dihydroalprenolol] please.
9.38
